test-protocol: Study G1T28-03 Part 1 plasma PK (with topotecan)
Assay type: in vivo, human
setup-conditions: human, plasma, 200 mg/m2, ES-SCLC + topotecan, 200 mg/m2, Cycle 1 Day 4 (n = 9), geometric mean; read-out: Vz
property-label: Vd

[[record]]
compound = "CN1CCN(c2ccc(Nc3ncc4cc5n(c4n3)C3(CCCCC3)CNC5=O)nc2)CC1 [trilaciclib]"
value_observed = "2120 L"


###

test-protocol: Study G1T28-03 Part 1 plasma PK (with topotecan)
Assay type: in vivo, human
setup-conditions: human, plasma, 280 mg/m2, ES-SCLC + topotecan, 280 mg/m2, Cycle 1 Day 4 (n = 7), range
Description: G1T28-03 (NCT02514447) was a multicentre Phase Ib/IIa study in patients with previously treated ES-SCLC [14]. […] Part 1 was a Phase Ib, open-label, dose-finding portion. Part 2 was a Phase IIa, randomized, double-blind, placebo-controlled portion. […] In Part 1 of the study, blood samples for PK analysis were collected at prespecified time points on Cycle 1 Day 1 and Cycle 1 Day 4 for all patients.
property-label: Tmax

[[record]]
structure_as_smiles = "CN1CCN(c2ccc(Nc3ncc4cc5n(c4n3)C3(CCCCC3)CNC5=O)nc2)CC1"
property_label = "Tmax"
value_observed = "25.2 to 33 min"


###

test-protocol: Study G1T28-1-01 plasma PK, first-in-human single dose
Assay type: in vivo
setup-conditions: both sexes, human, plasma; healthy volunteers, single 30-min IV 6 mg/m2 (n = 3), mean
property-label: Tmax (min)

[[record]]
structure_as_smiles = "CN1CCN(c2ccc(Nc3ncc4cc5n(c4n3)C3(CCCCC3)CNC5=O)nc2)CC1"
output_unit = "min"
value_observed = 15


###

test-protocol: Population PK model with allometric scaling of preclinical and human PK data
Design: species or system mouse, rat, dog
setup-conditions: mouse, rat, dog, human; three-compartment model, allometric scaling; estimated; read-out: V (central volume of distribution), PK model
property-label: Vd (L/kg)

[[record]]
structure_as_smiles = "CN1CCN(c2ccc(Nc3ncc4cc5n(c4n3)C3(CCCCC3)CNC5=O)nc2)CC1"
property_label = "Vd"
value_observed = 1.32


###

test-protocol: Study G1T28-1-01 plasma PK, first-in-human single dose
Assay type: in vivo
setup-conditions: both sexes, human, plasma, iv, 6 mg/m2, healthy volunteers, single 30-min IV 6 mg/m2 (n = 3), mean; read-out: Vz
property-label: Vd (L)

[[record]]
structure_as_smiles = "CN1CCN(c2ccc(Nc3ncc4cc5n(c4n3)C3(CCCCC3)CNC5=O)nc2)CC1"
property_label = "Vd"
output_unit = "L"
value_observed = 1460


###

test-protocol: Study G1T28-02 Part 1 plasma PK (with E/P)
Format: in vivo, human
setup-conditions: human, plasma, intravenous, ES-SCLC + E/P, 240 mg/m2, Cycle 1 Day 3 (n = 1); read-out: Vz
property-label: Vd

[[record]]
compound = "CN1CCN(c2ccc(Nc3ncc4cc5n(c4n3)C3(CCCCC3)CNC5=O)nc2)CC1 [trilaciclib]"
property_label = "Vd"
value_observed = "1050 L"


###

test-protocol: Study G1T28-03 Part 1 plasma PK (with topotecan)
Assay type: in vivo, human
setup-conditions: human, plasma, ES-SCLC + topotecan, 240 mg/m2, Cycle 1 Day 1 (n = 14), geometric mean; read-out: Cmax
property-label: Cmax (ng/mL)

[[record]]
structure_as_smiles = "CN1CCN(c2ccc(Nc3ncc4cc5n(c4n3)C3(CCCCC3)CNC5=O)nc2)CC1"
value_observed = 1270

